target: Ephrin type-A receptor 4 (Mus musculus); assay: inhibitors of EphA4 binding to KYL peptide, primary screen, biochemical, colorimetric, mouse EphA4 (AID 689); conditions: EphA4-AP binding to KYL peptide, pNPP A405, at 10 µM, stronger effect = higher value
In all, about 62,000 compounds went through this assay and about 80 (0.1%) were called active. Not all results are given here. Results with a measured potency or affinity are listed apart.
outcome measure: inhibition

Cn1c(=O)oc2cc(S(=O)(=O)N3CCN(c4cccc(Cl)c4)CC3)ccc21; -5.3% (inactive)
O=S(=O)(c1ccc(Cl)cc1)N1CCN(c2ccccn2)CC1; 11% [this sample at 5 µg/mL] (inactive)
Cc1cc(C)n2nc(SC3CCCCN(C(=O)c4ccc(F)cc4)C3=O)nc2n1 (centres undefined); -9.7% (inactive)
COc1ccccc1NC(=O)CSc1nnc(-c2ccco2)n1Cc1ccco1; -25.5% (inactive)
O=C1CCCC2=C1C(c1ccco1)Nc1ccc(C(=O)c3ccccc3)cc1N2 (centres undefined); -4.7% (inactive)
Oc1oc(-c2ccccc2)nc1C=Nc1ccccc1; 1% (inactive)
O=C(Cc1cccs1)Nc1nnc(Cc2ccc(F)cc2)s1; -11.3% (inactive)
CCOc1ccc(N(CC(=O)Nc2ccc3c(c2)OCCO3)S(=O)(=O)c2c(C)noc2C)cc1; -0.5% (inactive)
c1ccc(-c2cn3nc4c(nc3n2)CCCC4)cc1; 5.2% (inactive)
Cc1ccccc1OCC(=O)Nc1ccc2c(c1)Cc1ccccc1-2; -9.2% (inactive)
Cc1ccc(S(=O)(=O)Oc2cccc(N3C(=O)C4CC=CCC4C3=O)c2)cc1 (centres undefined); -10.4% (inactive)
Cc1ccc(/C=C2\SC(=S)N(Cc3ccccc3)C2=O)o1; -10.8% (inactive)
CC(C)OP(=O)(c1ccc(N(C)C)cc1)C(O)c1ccncc1 (centres undefined); -19.9% (inactive)
CC(C)OCCCNC(=O)C1CCC(=O)N1C(C)C (centres undefined); -3.7% (inactive)
CCn1c2ccccc2c2nc3cc(S(=O)(=O)N4CCOCC4)ccc3nc21; 32.3% (inactive)
CCn1c(SCC(=O)OC(C)C)nnc1-c1cccc(Cl)c1; -13.7% (inactive)
CCOc1ccc(S(=O)(=O)N(CC(=O)Nc2ccccc2C)c2ccc(C)cc2)cc1; 2% [this sample at 5 µg/mL] (inactive)
CCn1c2ccccc2c2nc3ccccc3nc21; 40.1% (inactive)
CN(C)c1ccc(N=Cc2nc(-c3ccccc3)oc2O)cc1; -7.6% (inactive)
Cc1nn2cc(-c3ccccc3)nc2s1; -24.1% (inactive)
COc1ccc(Cc2nnc(NC(=O)c3cccs3)s2)cc1; -1.1% (inactive)
Cn1c(SCC(=O)NC2CCCC2)nc2cccnc21; -0.5% (inactive)
